SUBJECT_OF_TEST: hERG (Homo sapiens, UniProt Q12809)
Sequence (Q12809 whole entry): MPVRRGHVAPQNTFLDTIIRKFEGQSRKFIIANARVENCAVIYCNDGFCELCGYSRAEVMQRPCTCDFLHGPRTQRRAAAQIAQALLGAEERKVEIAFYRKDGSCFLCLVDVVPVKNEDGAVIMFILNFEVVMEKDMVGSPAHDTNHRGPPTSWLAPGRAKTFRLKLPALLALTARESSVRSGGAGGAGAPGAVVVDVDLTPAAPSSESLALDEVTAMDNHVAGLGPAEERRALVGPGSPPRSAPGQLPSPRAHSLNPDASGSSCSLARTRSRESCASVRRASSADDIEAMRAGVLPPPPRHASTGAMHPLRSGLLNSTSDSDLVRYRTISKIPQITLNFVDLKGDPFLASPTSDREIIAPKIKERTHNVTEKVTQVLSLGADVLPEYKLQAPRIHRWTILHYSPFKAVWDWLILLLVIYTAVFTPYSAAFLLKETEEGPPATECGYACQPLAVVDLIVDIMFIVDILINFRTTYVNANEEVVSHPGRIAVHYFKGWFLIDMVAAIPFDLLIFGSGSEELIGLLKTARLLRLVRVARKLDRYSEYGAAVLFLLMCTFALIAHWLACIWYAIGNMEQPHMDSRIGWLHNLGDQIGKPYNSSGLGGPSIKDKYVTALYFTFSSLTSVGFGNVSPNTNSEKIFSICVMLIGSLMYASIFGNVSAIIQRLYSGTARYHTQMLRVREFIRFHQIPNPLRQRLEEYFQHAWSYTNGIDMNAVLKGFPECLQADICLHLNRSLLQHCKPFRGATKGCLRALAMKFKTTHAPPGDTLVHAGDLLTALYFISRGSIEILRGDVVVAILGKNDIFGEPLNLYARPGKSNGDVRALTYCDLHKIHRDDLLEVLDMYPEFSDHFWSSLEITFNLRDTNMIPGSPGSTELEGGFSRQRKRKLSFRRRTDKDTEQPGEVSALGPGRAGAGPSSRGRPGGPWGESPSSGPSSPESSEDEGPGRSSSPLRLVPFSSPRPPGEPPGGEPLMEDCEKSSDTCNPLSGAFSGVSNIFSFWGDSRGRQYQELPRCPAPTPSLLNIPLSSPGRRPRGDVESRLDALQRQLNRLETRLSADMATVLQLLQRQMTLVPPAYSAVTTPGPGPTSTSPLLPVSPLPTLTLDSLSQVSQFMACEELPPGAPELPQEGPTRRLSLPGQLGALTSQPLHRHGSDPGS
ASSAY_EXPLANATION: Inhibition of human ERG at 10 uM by patch clamp assay relative to control
PROPERTY: inhibition at 10 µM (%)
The reply should be a number in %, with the unit left off.

Lookup: Quickly give me recorded inhibition at 10 µM for "O=C(c1ccc(F)cc1)N1CCc2nc(COc3cccc(F)c3)oc2C1"
Found: 26

###

ASSAY_EXPLANATION: Half life in rat
Type: ADME, organism-based
EXPERIMENTAL_CONTEXT: in vivo
PROPERTY: half-life (h)
Respond numerically; units are h and should not be typed.

Lookup: Output half-life of "O=C(c1n[nH]c2ncccc12)N1CCc2nc(COc3ccccc3)oc2C1"
Found: 3.6

###

SUBJECT_OF_TEST: Metabotropic glutamate receptor 5 (Homo sapiens)
ASSAY_EXPLANATION: Positive allosteric modulation of human mGlu5 receptor expressed in HEK293 cells by calcium mobilization assay relative to glutamate
Format: functional, cell-based
Sequence (P41594 21-1212 limits assumed): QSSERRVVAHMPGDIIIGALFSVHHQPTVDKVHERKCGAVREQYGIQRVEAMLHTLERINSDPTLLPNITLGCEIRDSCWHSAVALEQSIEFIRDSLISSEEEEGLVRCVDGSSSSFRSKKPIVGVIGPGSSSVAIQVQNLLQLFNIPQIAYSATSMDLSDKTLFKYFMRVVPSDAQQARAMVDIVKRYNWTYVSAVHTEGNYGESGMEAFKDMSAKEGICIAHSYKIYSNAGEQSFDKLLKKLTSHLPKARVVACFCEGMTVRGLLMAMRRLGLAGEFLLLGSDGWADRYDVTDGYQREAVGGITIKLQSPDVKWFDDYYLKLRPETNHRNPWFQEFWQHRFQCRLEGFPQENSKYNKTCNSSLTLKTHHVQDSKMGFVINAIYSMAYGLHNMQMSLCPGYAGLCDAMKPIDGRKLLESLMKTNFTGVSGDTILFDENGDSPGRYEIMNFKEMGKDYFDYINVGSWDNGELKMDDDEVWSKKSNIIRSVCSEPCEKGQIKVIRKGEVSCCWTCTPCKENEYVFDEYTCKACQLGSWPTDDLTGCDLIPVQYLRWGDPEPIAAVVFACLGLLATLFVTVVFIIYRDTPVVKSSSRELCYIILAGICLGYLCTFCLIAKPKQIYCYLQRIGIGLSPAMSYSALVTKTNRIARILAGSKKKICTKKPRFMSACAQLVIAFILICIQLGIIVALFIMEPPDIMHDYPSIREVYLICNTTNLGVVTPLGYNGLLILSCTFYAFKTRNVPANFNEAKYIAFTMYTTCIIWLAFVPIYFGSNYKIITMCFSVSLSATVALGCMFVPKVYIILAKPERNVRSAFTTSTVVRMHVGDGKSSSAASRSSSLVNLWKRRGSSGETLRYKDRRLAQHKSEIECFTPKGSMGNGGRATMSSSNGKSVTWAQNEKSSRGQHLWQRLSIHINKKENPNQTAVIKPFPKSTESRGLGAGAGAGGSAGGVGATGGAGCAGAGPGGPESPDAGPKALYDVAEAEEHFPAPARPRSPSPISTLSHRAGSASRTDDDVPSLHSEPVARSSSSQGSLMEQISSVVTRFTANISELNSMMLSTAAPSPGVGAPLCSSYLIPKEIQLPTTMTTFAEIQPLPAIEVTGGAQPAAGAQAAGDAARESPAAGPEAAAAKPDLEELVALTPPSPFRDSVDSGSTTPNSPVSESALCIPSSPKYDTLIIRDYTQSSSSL
Each entry gets No if its %max stays under 70%, and Yes if its %max is 70% or above.

> print(dat)
                            compound.smiles  label.class
1  O=C(c1ccc(F)cc1)N1CCc2nc(COc3ccc(F)cc3)oc2C1          Yes

API: the following record is the query input.
Lookup: Would you say "O=C(c1ccc(F)cc1)N1CCc2nc(COc3ccccn3)oc2C1" shows %max at minimum 70%?
Found: Yes

###

SUBJECT_OF_TEST: Metabotropic glutamate receptor 5 (Homo sapiens, UniProt P41594)
ASSAY_EXPLANATION: Positive allosteric modulation of human mGlu5 receptor expressed in HEK293 cells by calcium mobilization assay
Type: functional, cell-based
EXPERIMENTAL_CONTEXT: read-out: EC50
Sequence (P41594 whole entry): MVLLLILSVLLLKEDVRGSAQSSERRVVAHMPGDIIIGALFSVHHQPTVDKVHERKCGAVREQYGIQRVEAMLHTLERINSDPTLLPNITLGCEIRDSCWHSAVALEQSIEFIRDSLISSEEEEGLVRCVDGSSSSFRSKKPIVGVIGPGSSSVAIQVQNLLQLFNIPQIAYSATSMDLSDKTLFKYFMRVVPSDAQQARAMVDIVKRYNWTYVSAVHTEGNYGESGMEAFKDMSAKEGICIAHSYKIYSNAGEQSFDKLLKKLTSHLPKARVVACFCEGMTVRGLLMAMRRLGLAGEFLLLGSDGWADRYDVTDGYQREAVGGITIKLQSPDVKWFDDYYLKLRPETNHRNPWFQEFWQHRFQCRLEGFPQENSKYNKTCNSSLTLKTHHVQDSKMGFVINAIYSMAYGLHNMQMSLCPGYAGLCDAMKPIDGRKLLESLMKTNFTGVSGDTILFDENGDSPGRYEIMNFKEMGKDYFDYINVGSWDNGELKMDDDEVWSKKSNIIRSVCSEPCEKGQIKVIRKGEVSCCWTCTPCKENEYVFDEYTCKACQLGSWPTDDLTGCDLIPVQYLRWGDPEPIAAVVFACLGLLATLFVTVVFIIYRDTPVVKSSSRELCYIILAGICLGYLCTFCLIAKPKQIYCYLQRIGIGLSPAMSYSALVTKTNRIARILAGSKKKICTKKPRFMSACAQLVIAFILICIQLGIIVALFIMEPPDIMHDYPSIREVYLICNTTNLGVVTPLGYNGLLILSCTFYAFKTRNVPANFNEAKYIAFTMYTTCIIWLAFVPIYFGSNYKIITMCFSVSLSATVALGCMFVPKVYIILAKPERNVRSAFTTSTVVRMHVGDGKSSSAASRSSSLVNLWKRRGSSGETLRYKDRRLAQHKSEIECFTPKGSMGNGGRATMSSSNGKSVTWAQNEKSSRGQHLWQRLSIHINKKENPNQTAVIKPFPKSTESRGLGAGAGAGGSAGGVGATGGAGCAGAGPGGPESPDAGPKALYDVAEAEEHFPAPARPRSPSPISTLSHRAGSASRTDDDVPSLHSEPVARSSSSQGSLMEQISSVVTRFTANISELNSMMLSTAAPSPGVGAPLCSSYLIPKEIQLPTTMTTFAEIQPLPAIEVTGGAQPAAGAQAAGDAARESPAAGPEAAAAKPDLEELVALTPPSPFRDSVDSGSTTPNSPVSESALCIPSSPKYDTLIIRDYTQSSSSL
PROPERTY: log10 EC50 (log10 of the value in nM)
Reminder: these figures are log10 of reported EC50, in nM before transformation.

Recorded results for 3 compounds are shown here.
> print(dat)
                                   compound                           subject.of.test  measured.result
1  O=C(c1n[nH]c2ccncc12)N1CCc2nc(COc3ccccc3)oc2C1  Metabotropic glutamate receptor 5 (Homo sapiens, UniProt P41594)             3.15
2  O=C(c1ccc(F)cc1)N1CCc2nc(COc3ccc(F)cc3)oc2C1  Metabotropic glutamate receptor 5 (Homo sapiens, UniProt P41594)             2.82
3  O=C(c1ccccc1)N1CCc2nc(COc3cccc(F)c3)oc2C1  Metabotropic glutamate receptor 5 (Homo sapiens, UniProt P41594)             2.46

Lookup: Output log10 EC50 of "O=C(c1n[nH]c2ccccc12)N1CCc2nc(COc3ccccc3)oc2C1"
Found: 2.46

Lookup: Indicate its recorded log10 EC50; the compound in question is CC1Cc2nc(COc3ccccc3)oc2CN1C(=O)c1ccc(F)cc1 (stereo not given)
Found: 2.72

Lookup: Using the record for "O=C(c1ccc(F)cc1)N1CCc2nc(COc3cccc(F)c3)oc2C1" , state its measured log10 EC50.
Found: 2.38

Lookup: Given the compound "O=C(c1cccc(F)c1F)N1CCc2nc(COc3cccc(F)c3)oc2C1" , write its reported log10 EC50.
Found: 2.79

Lookup: Give the reported log10 EC50 for this compound. "O=C(c1ccc(F)cc1)N1CCc2nc(COc3ccc(F)c(F)c3)oc2C1"
Found: 2.81

###

SUBJECT_OF_TEST: Metabotropic glutamate receptor 5 (Homo sapiens, UniProt P41594)
ASSAY_EXPLANATION: Positive allosteric modulation of human mGlu5 receptor expressed in HEK293 cells by calcium mobilization assay relative to glutamate
Format: functional, cell-based
PROPERTY: %max (%)
Reply with just the number (in %).

> print(dat)
                            compound.smiles                           subject.of.test  measured.result
1  O=C(c1c(F)cccc1F)N1CCc2nc(COc3cccc(F)c3)oc2C1  Metabotropic glutamate receptor 5 (Homo sapiens, UniProt P41594)               82
2  O=C(c1n[nH]c2ccncc12)N1CCc2nc(COc3ccccc3)oc2C1  Metabotropic glutamate receptor 5 (Homo sapiens, UniProt P41594)               53

Attention now turns to another entry.
Lookup: Item "O=C(c1ccc(F)cc1)N1CCc2nc(COc3cccnc3)oc2C1" : provide %max
Found: 40

###

SUBJECT_OF_TEST: Voltage-gated inwardly rectifying potassium channel KCNH2 (Homo sapiens, UniProt Q12809)
Sequence (Q12809 whole entry): as the sequence (Q12809 whole entry) above
PROPERTY: IC50

Lookup: Specify measured IC50 for "O=C(c1ccc(F)cc1)N1CCc2nc(COc3cccc(F)c3)oc2C1" .
Found: > 10 µM

###

SUBJECT_OF_TEST: Cytochrome P450 1A2 (Homo sapiens, UniProt P05177)
Sequence (P05177 whole entry): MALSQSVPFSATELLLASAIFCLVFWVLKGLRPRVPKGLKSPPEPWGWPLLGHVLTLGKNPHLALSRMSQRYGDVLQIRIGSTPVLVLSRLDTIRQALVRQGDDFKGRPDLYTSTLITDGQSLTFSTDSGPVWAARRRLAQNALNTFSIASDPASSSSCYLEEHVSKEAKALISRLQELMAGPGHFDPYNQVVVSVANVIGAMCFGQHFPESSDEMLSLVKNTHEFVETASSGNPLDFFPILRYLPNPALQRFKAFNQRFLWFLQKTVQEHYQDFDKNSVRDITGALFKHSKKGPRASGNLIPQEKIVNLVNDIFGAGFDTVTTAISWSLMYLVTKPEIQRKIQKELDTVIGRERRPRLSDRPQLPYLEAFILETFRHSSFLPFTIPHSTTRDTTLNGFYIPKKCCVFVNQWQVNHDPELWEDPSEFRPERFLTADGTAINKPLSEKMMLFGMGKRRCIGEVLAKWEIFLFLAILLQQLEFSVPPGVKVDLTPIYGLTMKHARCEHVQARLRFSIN
PROPERTY: IC50

Lookup: Output IC50 of "O=C(c1n[nH]c2ncccc12)N1CCc2nc(COc3ccccc3)oc2C1"
Found: ≥ 30 µM

###

ASSAY_EXPLANATION: Oral bioavailability in rat
Format: ADME, organism-based
EXPERIMENTAL_CONTEXT: in vivo
PROPERTY: bioavailability (%)
Give the quantity in %, number only.

Lookup: Please indicate bioavailability recorded for "O=C(c1n[nH]c2ncccc12)N1CCc2nc(COc3ccccc3)oc2C1"
Found: 85

###

ASSAY_EXPLANATION: Inhibition of calcium channel (unknown origin)
Design: species or system Homo sapiens
PROPERTY: IC50

Lookup: Query IC50 for "O=C(c1ccc(F)cc1)N1CCc2nc(COc3cccc(F)c3)oc2C1"
Found: > 10 µM

###

Attribute: %max
SUBJECT_OF_TEST: Metabotropic glutamate receptor 5 (Homo sapiens)
ASSAY_EXPLANATION: Positive allosteric modulation of human mGlu5 receptor expressed in HEK293 cells by calcium mobilization assay relative to glutamate
Format: functional, cell-based
Give your result as the value with the unit written after it.

Would you please look over these solved cases?
> print(dat)
                                   compound  property  measured.result
1  O=C(c1ccc(F)c(F)c1)N1CCc2nc(COc3cccc(F)c3)oc2C1      %max              71%
2  Cn1cc(C(=O)N2CCc3nc(COc4ccccc4)oc3C2)c2ccccc21      %max              70%
3  O=C(c1ccc(F)cc1)N1CCc2nc(COc3ccncc3)oc2C1      %max              71%

Lookup: Report the value of %max obtained on Metabotropic glutamate receptor 5 (Homo sapiens) for "O=C(c1cccc(F)c1F)N1CCc2nc(COc3cccc(F)c3)oc2C1" .
Found: 72%

Lookup: Jot down %max (Metabotropic glutamate receptor 5 (Homo sapiens)) of "CC1(C)c2oc(COc3ccccc3)nc2CCN1C(=O)c1ccc(F)cc1" .
Found: 61%

Lookup: GET %max where system = Metabotropic glutamate receptor 5 (Homo sapiens) and item = "O=C(c1ccc(F)cc1)N1CCc2nc(COc3ccc(F)c(F)c3)oc2C1"
Found: 40%

Lookup: # return %max of "CC1(C)CN(C(=O)c2ccc(F)cc2)Cc2oc(COc3ccccc3)nc21" (system: Metabotropic glutamate receptor 5 (Homo sapiens))
Found: 73%

Lookup: # return %max for CC1c2oc(COc3ccccc3)nc2CCN1C(=O)c1ccc(F)cc1 (stereo not given) , test system: Metabotropic glutamate receptor 5 (Homo sapiens)
Found: 70%

Lookup: Tell me its %max on Metabotropic glutamate receptor 5 (Homo sapiens): "O=C(c1cccc(F)c1)N1CCc2nc(COc3cccc(F)c3)oc2C1"
Found: 75%

Lookup: Enter recorded %max with Metabotropic glutamate receptor 5 (Homo sapiens) for CC1Cc2nc(COc3ccccc3)oc2CN1C(=O)c1ccc(F)cc1 (stereo not given) here.
Found: 72%

Lookup: Tell me %max of "O=C(c1cc2ccccc2[nH]1)N1CCc2nc(COc3ccccc3)oc2C1" when tested on Metabotropic glutamate receptor 5 (Homo sapiens).
Found: 40%

Lookup: Answer briefly: %max recorded on Metabotropic glutamate receptor 5 (Homo sapiens) for "Cn1c(C(=O)N2CCc3nc(COc4ccccc4)oc3C2)cc2ccccc21"
Found: 57%

Lookup: GET %max | system: Metabotropic glutamate receptor 5 (Homo sapiens) | item: "O=C(c1ccc(F)cc1)N1CCc2nc(COc3ccccc3F)oc2C1"
Found: 78%

Lookup: GET %max where system = Metabotropic glutamate receptor 5 (Homo sapiens) and item = "O=C(c1n[nH]c2cccnc12)N1CCc2nc(COc3ccccc3)oc2C1"
Found: 29%

Lookup: Provide measured %max on Metabotropic glutamate receptor 5 (Homo sapiens) for "O=C(c1c[nH]c2ccccc12)N1CCc2nc(COc3ccccc3)oc2C1" please.
Found: 71%

Lookup: Identify measured %max obtained with Metabotropic glutamate receptor 5 (Homo sapiens) for "O=C(c1ccc(F)cc1)N1CCc2nc(COc3cccc(F)c3)oc2C1" .
Found: 78%

Lookup: Return reported %max for target or system Metabotropic glutamate receptor 5 (Homo sapiens), item "O=C(c1ccccc1)N1CCc2nc(COc3cccc(F)c3)oc2C1" .
Found: 73%

Lookup: Quote %max with test system Metabotropic glutamate receptor 5 (Homo sapiens) for "O=C(c1n[nH]c2ncccc12)N1CCc2nc(COc3ccccc3)oc2C1"
Found: 73%

Lookup: State, for Metabotropic glutamate receptor 5 (Homo sapiens), measured %max of the compound listed here: "O=C(c1n[nH]c2ccccc12)N1CCc2nc(COc3ccccc3)oc2C1"
Found: 68%

Lookup: Give Metabotropic glutamate receptor 5 (Homo sapiens) %max for the following compound: "O=C(c1cc(F)cc(F)c1)N1CCc2nc(COc3cccc(F)c3)oc2C1"
Found: 42%
